# System: Enterococcus faecalis
# Test details: Antimicrobial activity against daptomycin-resistant Enterococcus faecalis ATCC 49452 incubated anaerobically at 37 degC for 48 hrs by agar dilution method
# Assay type: functional
# Applied conditions: ATCC 49452, 48 h
Assay endpoint: MIC

These recorded examples may help you get a feel for the data.
>  <Compound>
CCCCCCc1ccc(C(=O)N[C@@H](Cc2c[nH]c3ccccc23)C(=O)N[C@@H](CC(N)=O)C(=O)N[C@@H](CC(=O)O)C(=O)N[C@@H]2C(=O)NCC(=O)N[C@@H](CCCN)C(=O)N[C@H](CC(=O)O)C(=O)N[C@H](C)C(=O)N[C@@H](CC(=O)O)C(=O)NCC(=O)N[C@H](CO)C(=O)N[C@@H]([C@@H](C)CC(=O)O)C(=O)N[C@@H](CC(=O)c3ccccc3N)C(=O)O[C@@H]2C)cc1

>  <Value observed>
> 32 mg/L

$$$$
>  <Compound>
CC(C)CCCCCCCCCCC(=O)N[C@@H](Cc1c[nH]c2ccccc12)C(=O)N[C@@H](CC(N)=O)C(=O)N[C@@H](CC(=O)O)C(=O)N[C@@H]1C(=O)NCC(=O)N[C@@H](CCCN)C(=O)NC(CC(=O)O)C(=O)N[C@H](C)C(=O)N[C@@H](CC(=O)O)C(=O)NCC(=O)N[C@H](CO)C(=O)N[C@@H]([C@@H](C)CC(=O)O)C(=O)N[C@@H](CC(=O)c2ccccc2N)C(=O)O[C@@H]1C (single isomer, unassigned)

>  <Value observed>
16 mg/L

$$$$

So for C[C@H]1NC(=O)[C@@H](CC(=O)O)NC(=O)[C@H](CCCN)NC(=O)CNC(=O)[C@@H](NC(=O)[C@H](CC(=O)O)NC(=O)[C@H](CC(N)=O)NC(=O)[C@H](Cc2c[nH]c3ccccc23)NC(=O)C2CCCCCCCCCCC2)[C@@H](C)OC(=O)[C@H](CC(=O)c2ccccc2N)NC(=O)[C@H]([C@@H](C)CC(=O)O)NC(=O)[C@@H](CO)NC(=O)CNC(=O)[C@H](CC(=O)O)NC1=O , the logged MIC turned out to be > 32 mg/L

----------
# Test system: Enterococcus faecium
# Test details: Antimicrobial activity against daptomycin-resistant Enterococcus faecium ATCC 6569 incubated anaerobically at 37 degC for 48 hrs by agar dilution method
# Type: functional
# Applied conditions: ATCC 6569, 48 h
Assay endpoint: MIC

Field MIC (system: Enterococcus faecium) for entry C[C@H]1NC(=O)C(CC(=O)O)NC(=O)[C@H](CCCN)NC(=O)CNC(=O)[C@@H](NC(=O)[C@H](CC(=O)O)NC(=O)[C@H](CC(N)=O)NC(=O)[C@H](Cc2c[nH]c3ccccc23)NC(=O)CCCCCCc2ccccc2)[C@@H](C)OC(=O)[C@H](CC(=O)c2ccccc2N)NC(=O)[C@H]([C@@H](C)CC(=O)O)NC(=O)[C@@H](CO)NC(=O)CNC(=O)[C@H](CC(=O)O)NC1=O (single isomer, unassigned) = > 32 µg/mL

----------
# System: Enterococcus faecalis
# Test details: Antimicrobial activity against daptomycin-resistant Enterococcus faecalis ATCC 49452 incubated anaerobically at 37 degC for 48 hrs by agar dilution method
# Assay type: functional
# Applied conditions: ATCC 49452, 48 h
Assay endpoint: MIC (µg/mL)
Entry rule: numbers only, all in µg/mL.

>  <Compound>
CCCCCCOc1ccc(-c2ccc(C(=O)N[C@@H](Cc3c[nH]c4ccccc34)C(=O)N[C@@H](CC(N)=O)C(=O)N[C@@H](CC(=O)O)C(=O)N[C@@H]3C(=O)NCC(=O)N[C@@H](CCCN)C(=O)N[C@H](CC(=O)O)C(=O)N[C@H](C)C(=O)N[C@@H](CC(=O)O)C(=O)NCC(=O)N[C@H](CO)C(=O)N[C@@H]([C@@H](C)CC(=O)O)C(=O)N[C@@H](CC(=O)c4ccccc4N)C(=O)O[C@@H]3C)cc2)cc1

>  <Measured on>
Enterococcus faecalis

>  <MIC / µg/mL>
2

$$$$

get_value(item= CCCCCCCCCCCCCC(=O)N[C@@H](Cc1c[nH]c2ccccc12)C(=O)N[C@@H](CC(N)=O)C(=O)N[C@@H](CC(=O)O)C(=O)N[C@@H]1C(=O)NCC(=O)N[C@@H](CCCN)C(=O)NC(CC(=O)O)C(=O)N[C@H](C)C(=O)N[C@@H](CC(=O)O)C(=O)NCC(=O)N[C@H](CO)C(=O)N[C@@H]([C@@H](C)CC(=O)O)C(=O)N[C@@H](CC(=O)c2ccccc2N)C(=O)O[C@@H]1C (single isomer, unassigned) , readout=MIC) returns 4
